Target: T1, Dimeric human CD48-mFc (human)
T1 construct: the whole entry is the construct; also called hCD48-mFc
T1 chain: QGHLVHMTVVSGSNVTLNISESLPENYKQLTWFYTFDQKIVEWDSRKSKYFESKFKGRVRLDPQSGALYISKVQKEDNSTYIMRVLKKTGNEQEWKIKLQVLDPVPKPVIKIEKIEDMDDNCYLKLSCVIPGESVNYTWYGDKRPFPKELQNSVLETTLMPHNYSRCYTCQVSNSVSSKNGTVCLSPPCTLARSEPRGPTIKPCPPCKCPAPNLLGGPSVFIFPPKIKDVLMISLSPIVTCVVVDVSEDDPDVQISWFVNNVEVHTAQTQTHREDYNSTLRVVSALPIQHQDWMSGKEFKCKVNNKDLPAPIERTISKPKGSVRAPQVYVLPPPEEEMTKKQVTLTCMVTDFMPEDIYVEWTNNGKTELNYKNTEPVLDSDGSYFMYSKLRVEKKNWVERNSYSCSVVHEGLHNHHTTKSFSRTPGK
Assay: SPR (Biacore), antibody captured by anti-Fc, CD48 in solution, 37 C
endpoint: log10(T½) (log10 of the value in h)
# log10 transformed; quantity=T½; unit=h

Name the reported log10(T½) value associated with the binder H2M1763N (antibody, mouse IgG2, V domains shown, Human variable domains, mouse IgG2 Fc (H2M)) VH: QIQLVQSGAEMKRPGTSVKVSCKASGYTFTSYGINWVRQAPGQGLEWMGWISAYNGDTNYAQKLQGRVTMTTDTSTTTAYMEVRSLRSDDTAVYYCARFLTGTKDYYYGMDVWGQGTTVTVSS VL: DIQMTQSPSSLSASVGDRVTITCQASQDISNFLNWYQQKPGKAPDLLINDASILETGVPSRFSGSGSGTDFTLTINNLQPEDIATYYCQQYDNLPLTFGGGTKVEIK
-0.66

Name the reported log10(T½) value associated with the binder H4H1775P (antibody, human IgG4, V domains shown, Human IgG4 Fc (H4H)) VH: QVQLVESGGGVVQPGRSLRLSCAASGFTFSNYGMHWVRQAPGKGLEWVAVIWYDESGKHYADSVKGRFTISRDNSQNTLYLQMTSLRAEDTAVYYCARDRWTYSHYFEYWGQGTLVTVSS VL: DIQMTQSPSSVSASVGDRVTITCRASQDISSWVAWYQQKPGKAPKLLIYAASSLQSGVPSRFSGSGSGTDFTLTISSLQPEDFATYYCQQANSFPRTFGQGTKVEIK
0.93

Name the reported log10(T½) value associated with the binder H2M1710N (antibody, mouse IgG2, V domains shown, Human variable domains, mouse IgG2 Fc (H2M)) VH: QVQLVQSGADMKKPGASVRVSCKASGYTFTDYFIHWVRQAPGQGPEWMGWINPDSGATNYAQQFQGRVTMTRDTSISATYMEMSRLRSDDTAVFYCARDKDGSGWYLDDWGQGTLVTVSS VL: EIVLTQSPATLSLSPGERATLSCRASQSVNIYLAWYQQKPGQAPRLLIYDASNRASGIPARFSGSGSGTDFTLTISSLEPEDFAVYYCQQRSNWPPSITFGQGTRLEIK
-0.35

Name the reported log10(T½) value associated with the binder H4H1779P (antibody, human IgG4, V domains shown, Human IgG4 Fc (H4H)) VH: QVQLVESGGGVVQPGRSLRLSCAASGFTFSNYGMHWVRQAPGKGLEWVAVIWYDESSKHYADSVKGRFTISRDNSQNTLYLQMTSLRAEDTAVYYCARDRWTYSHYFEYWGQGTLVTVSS VL: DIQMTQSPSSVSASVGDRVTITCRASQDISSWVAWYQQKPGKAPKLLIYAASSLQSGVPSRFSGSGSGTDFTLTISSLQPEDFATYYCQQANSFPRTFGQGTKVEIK
0.62

Name the reported log10(T½) value associated with the binder H4H1771P (antibody, human IgG4, V domains shown, Human IgG4 Fc (H4H)) VH: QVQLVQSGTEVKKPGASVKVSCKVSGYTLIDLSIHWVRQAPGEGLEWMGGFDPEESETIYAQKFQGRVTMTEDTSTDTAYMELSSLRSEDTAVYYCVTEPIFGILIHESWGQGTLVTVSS VL: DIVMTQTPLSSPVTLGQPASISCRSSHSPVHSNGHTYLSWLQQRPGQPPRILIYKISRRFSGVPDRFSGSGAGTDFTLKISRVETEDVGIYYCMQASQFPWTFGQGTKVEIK
0.60
